Values were extracted from patent US5229381A.

Each item that follows carries a reported log10 kinact/KI.
# System name: human polymorphonuclear leukocyte elastase (Homo sapiens)
# Construct: Crude extract of human polymorphonuclear leukocytes (PMN) containing elastase activity; endogenous in cells; host or cells: human polymorphonuclear leukocytes (crude extract)
# Sequence (P08246 30-247 limits assumed): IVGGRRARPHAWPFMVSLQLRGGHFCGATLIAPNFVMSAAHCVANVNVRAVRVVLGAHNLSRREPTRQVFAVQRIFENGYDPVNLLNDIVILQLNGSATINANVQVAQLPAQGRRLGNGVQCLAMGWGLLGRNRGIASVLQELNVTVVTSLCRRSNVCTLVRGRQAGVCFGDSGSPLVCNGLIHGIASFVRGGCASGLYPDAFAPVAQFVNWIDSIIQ
# Assay summary: Inhibition of human polymorphonuclear leukocyte (granulocyte) elastase via hydrolysis of Boc-AAPAN or Boc-AAPVN
# Format: biochemical
# Measurement setup: pH 7.5, read-out: kobs/I, second order rate constant of inactivation of the enzyme
Reported property: log10 kinact/KI (log10 of the value in M⁻¹ s⁻¹)

Molecule: CC[C@H]1C(=O)N(C(C)=O)[C@@H]1Oc1ccccc1 (relative stereo) [Table I: H; C2 H5 (trans); OPh; COCH3]
log10 kinact/KI: 3.72

Molecule: CCC1C(=O)N(C(=O)c2ccccc2)C1C(C)=O (stereo not drawn) [Table I: H; C2 H5 (trans); COCH3; COPh]
log10 kinact/KI: 4.88

Molecule: CC[C@H]1C(=O)N(S(=O)(=O)c2ccc(C)cc2)[C@H]1C(=O)N(C)CC(=O)O (relative stereo)
log10 kinact/KI: 2.22

Molecule: CCCC1(C)C(=O)N(C(=O)NCc2ccccc2)C1Oc1ccc(C(=O)O)cc1 (centres unmarked)
log10 kinact/KI: 3.28

Molecule: CC[C@H]1C(=O)N(C(C)=O)[C@@H]1Oc1ccc(C(=O)O)cc1 (relative stereo)
log10 kinact/KI: 3.94
